system_under_test: T1, monkey TIM-3 extracellular domain protein with hFc tag (cTIM-3-hFc) (monkey)
T1 construct: not shown: human IgG Fc fragment (hFc) of the pCpC vector
T1 chain: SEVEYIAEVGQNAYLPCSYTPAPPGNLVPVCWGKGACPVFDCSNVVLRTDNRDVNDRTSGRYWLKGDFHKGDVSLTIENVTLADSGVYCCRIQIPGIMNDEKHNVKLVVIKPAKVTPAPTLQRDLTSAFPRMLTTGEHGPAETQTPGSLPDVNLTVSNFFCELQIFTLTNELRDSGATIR
protocol_details: ELISA, coated monkey TIM-3 ECD protein, 0.0007 nM antibody
# OD450 per record follows

{"columns": ["binder", "OD450"],
 "data": [
  ["39E5H1 fully human TIM-3 antibody (human IgG4, kappa) (antibody, V domains shown) VH: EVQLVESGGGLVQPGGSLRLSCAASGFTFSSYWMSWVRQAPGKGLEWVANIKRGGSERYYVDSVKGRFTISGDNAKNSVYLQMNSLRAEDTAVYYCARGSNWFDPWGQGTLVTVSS VL: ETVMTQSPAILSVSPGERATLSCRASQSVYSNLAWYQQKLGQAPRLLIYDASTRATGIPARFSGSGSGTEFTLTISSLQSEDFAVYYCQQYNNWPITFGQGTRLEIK", 0.18],
  ["57F4E5 fully human TIM-3 antibody (human IgG4, kappa) (antibody, V domains shown) VH: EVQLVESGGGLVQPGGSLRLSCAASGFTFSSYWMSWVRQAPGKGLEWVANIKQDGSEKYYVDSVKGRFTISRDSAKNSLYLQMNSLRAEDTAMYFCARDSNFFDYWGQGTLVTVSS VL: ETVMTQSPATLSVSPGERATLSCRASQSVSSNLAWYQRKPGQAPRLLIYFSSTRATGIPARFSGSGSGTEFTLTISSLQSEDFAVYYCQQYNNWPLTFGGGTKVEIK", 0.18],
  ["134H3G6 fully human TIM-3 antibody (human IgG4, kappa) (antibody, V domains shown) VH: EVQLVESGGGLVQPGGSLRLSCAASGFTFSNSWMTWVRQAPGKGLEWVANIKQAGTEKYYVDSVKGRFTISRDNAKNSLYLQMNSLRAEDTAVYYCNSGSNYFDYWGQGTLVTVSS VL: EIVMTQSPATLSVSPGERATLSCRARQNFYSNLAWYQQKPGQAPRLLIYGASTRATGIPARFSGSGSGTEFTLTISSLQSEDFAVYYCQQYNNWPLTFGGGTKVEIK", 0.15]
]}
